test system: SNB-75; test: NCI tumour cell line growth inhibition, 48 h
The source made the active and inactive calls. No stated cut-off is given here; in the data, active = GI50 up to about 1.1 µM and inactive = higher.
Pick one and only one: active, inactive

Would you please look over these solved cases?
Cc1cn([C@@H]2C[C@H](CO)[C@@H]2O)c(=O)[nH]c1=O = inactive
Cc1ccc(NC(Nc2ccc(C)cc2C)=C(/C=C(\Cl)[N+](=O)[O-])[N+](=O)[O-])c(C)c1 = active
NS(=O)(=O)c1ccc(NC(=O)N/N=C/c2ccccc2[N+](=O)[O-])cc1 = inactive
N#CSC/C(Cl)=C/Cl.N#CSC/C(Cl)=C\Cl = inactive
NCCN1CC2CCC(CC2)C1 = inactive

Shifting focus to the compound that follows.
Lookup: Could you check what this test reported for O=[N+]([O-])c1cc(Cl)ccc1OCc1ccccc1 ?
Found: inactive

* * *

tested on: MOLT-4; assay: NCI tumour cell line growth inhibition, 48 h
Active and inactive are the calls of the source. No stated cut-off is given here; in the data, active = GI50 up to about 1.1 µM and inactive = higher.
Return exactly one item of yes = active, no = inactive

Field: example entries. Status: answers known.
OC(COC(c1ccccc1)(c1ccccc1)c1ccccc1)C(O)CC1SCCS1 (stereo not given) = no
COC(=O)C(=O)C(C(=O)C(=O)Nc1ccc(Cl)cc1Cl)c1nc2ccc(Cl)cc2nc1O (stereo not given) = no
O=C(O)C(=O)/C=C\c1ccc(Cl)cc1 = no
OC1c2ccccc2C2C(O)c3ccccc3C12 (stereo not given) = no
O=c1c2c3c(sc2nc2n1N=CN(c1ccccc1)C2)CCCC3 = no

Lookup: What did the test return for Cc1ccc(NC(=S)N/N=C(/c2ccccc2)c2ccccn2)cc1 ?
Found: yes

Lookup: For Cc1csc(N/C=C2\C(=O)Oc3ccccc3C2=O)n1 , what call appears in the results of this test?
Found: no

Lookup: Hello, I am checking results. What call was entered for CC1NC(=O)c2c(-c3ccccc3)nn(-c3ccccc3)c2NC1=O (stereo not given) ?
Found: no

Lookup: State the result this test recorded for CCN(CC)CCNC(=O)c1ccc([N+](=O)[O-])cc1OC .
Found: no

Lookup: GET /call?item= O=CNc1cccc2c3c([nH]c12)CCCCCC3 returns the recorded outcome of this test.
Found: no

* * *

tested on: MCF7; assay: NCI tumour cell line growth inhibition, 48 h
Activity calls are given as the source filed them. Rule as the data show it: active = GI50 up to about 1.1 µM and inactive = higher.
Parameter measured: GI50

// below: answered compounds
Cc1nc(C)c(N2CCN(C(=O)O)CC2)c(O)n1 = > 100 µM (inactive)
CCOC(CN(C)C(=O)OCC(Cl)(Cl)Cl)OCC = 67.9 µM (inactive)
Cc1cn([C@@H]2C[C@H](CO)[C@@H]2O)c(=O)[nH]c1=O = > 100 µM (inactive)

Let us move to another entry and its GI50.
Short answer for CN(Cc1cnc2nc(N)nc(N)c2n1)c1ccc(C(=O)NC(CCC(=O)NC(P(=O)(O)O)P(=O)(O)O)C(=O)O)cc1 (centres undefined) : GI50 was 39.8 µM (inactive)

* * *

test system: DMS-273; assay: NCI tumour cell line growth inhibition, 48 h
Activity calls are given as the source filed them. Cut-off read from the data, not from the text of the source: active = GI50 up to about 1.1 µM and inactive = higher.
Parameter measured: GI50

Answered examples (5):
O=C(Nc1cccc2c1[nH]c1c(-c3ccccc3)nccc12)c1ccccc1[N+](=O)[O-] = 4.88 µM (inactive)
Cn1c(-c2ccccc2)cc(-c2cccs2)c1-c1cccs1 = > 100 µM (inactive)
C[C@@H]1O[C@@H](O[C@H]2[C@H](Oc3cc(O)c4c(=O)cc(-c5ccc(O)cc5)oc4c3)O[C@H](CO)[C@@H](O)[C@@H]2O)[C@H](O)[C@H](O)[C@H]1O [RHOIFOLIN] = > 100 µM (inactive)
O=c1cc[nH]c2ccc3nn[nH]c3c12 = > 100 µM (inactive)
CCOc1ccccc1NC(=O)C1=C(C)NC(C)=C(C(=O)Nc2ccccc2OCC)C1c1ccc([N+](=O)[O-])cc1 = 71.4 µM (inactive)

// GI50 lookup, molecule = Cc1cc2ncn(-c3nc4ccccc4nc3C(C#N)S(C)(=O)=O)c2cc1C (stereo not drawn) , result: > 100 µM (inactive)

Sample ClC(Cl)[Si]12OCCN(CCO1)CCO2 ; GI50 observed: > 100 µM (inactive)

The recorded GI50 for Cn1c2c(cc(-c3ccccc3)c1=O)COc1ccccc1-2 is 19.5 µM (inactive)
